- Test system: MCF-7 breast cancer cells
- experimental.protocol: MTT cell toxicity assay in MCF-7 breast cancer cells
- Assay type: cell-based
- setup.conditions: MCF-7 cells, MTT, final 0.5% FBS, two days with compound
- Description: Cell Toxicity Assays: MCF-7 (breast cancer), T47D (breast cancer), Colo 205 (colon cancer), JM-1 (rat hepatoma), Sk Me1-2 (melanoma), PLC (human hepatoma), and HepG2 (human hepatoma) cells were obtained from American Type Cell Culture Collection. MCF-7 cells were grown in RPMI medium supplemented with 10% Fetal Bovine Serum. The rest of the cell lines were grown in DMEM medium supplemented with 10% Fetal Bovine Serum. […]
Where a SMILES comes first, the peptide text is derived from it. The star is where a group is joined. Palmitoyl = CCCCCCCCCCCCCCCC(=O)*
Assign GI50 to each entry below.
One number for each entry, in nM.

In the examples that follow, each entry is paired with its recorded GI50.
[
  {
    "compound": "CCCCCCCCCCCCCCCC(=O)N[C@@H](CCCNC(=N)N)C(=O)N[C@@H](CC(N)=O)C(=O)N[C@@H](CC(N)=O)C(=O)N[C@@H](CO)C(=O)N[C@@H](CCCNC(=N)N)C(=O)N[C@@H](CC(C)C)C(=O)NCC(=O)N[C@@H](CC(N)=O)C(=O)NCC(=O)N[C@H](C(=O)N[C@@H](CC(C)C)C(=O)N[C@@H](Cc1ccc(O)cc1)C(=O)N[C@@H](C)C(N)=O)C(C)C [Peptide 33, Pal-RNNSRLGNGVLYA-NH2] (Palmitoyl-RNNSRLGNGVLYA-NH2)",
    "value.observed": 100
  },
  {
    "compound": "CCCCCCCCCCCCCCCC(=O)N[C@@H](CO)C(=O)N[C@@H](CCCNC(=N)N)C(=O)N[C@@H](CC(C)C)C(=O)NCC(=O)N[C@@H](CC(N)=O)C(=O)NCC(=O)N[C@H](C(=O)N[C@@H](CC(C)C)C(=O)N[C@@H](Cc1ccc(O)cc1)C(N)=O)C(C)C [Peptide 19, Pal-SRLGNGVLY-NH2] (Palmitoyl-SRLGNGVLY-NH2)",
    "value.observed": 150
  }
]

Next:
Request: GET /values?readout=GI50&system=MCF-7 breast cancer cells&item= CCCCCCCCCCCCCCCC(=O)N[C@@H](Cc1c[nH]cn1)C(=O)N[C@@H](CCCNC(=N)N)C(=O)N[C@@H](CCCCN)C(=O)N[C@@H](CCCNC(=N)N)C(=O)N[C@@H](CC(N)=O)C(=O)N[C@@H](CC(N)=O)C(=O)N[C@@H](CO)C(=O)N[C@@H](CCCNC(=N)N)C(=O)N[C@@H](CC(C)C)C(=O)NCC(=O)N[C@@H](CC(N)=O)C(=O)NCC(=O)N[C@H](C(=O)N[C@@H](CC(C)C)C(=O)N[C@@H](Cc1ccc(O)cc1)C(=O)N[C@@H](C)C(N)=O)C(C)C [Peptide 8, Pal-HRKRNNSRLGNGVLYA-NH2] (Palmitoyl-HRKRNNSRLGNGVLYA-NH2)
Result: 1400

Taken from patent US20110195911A1.
